Assay: binders of r(CAG) RNA repeats, SAR follow-up, biochemical, fluorescence, dose response, MedChem round 1 (AID 743497)
Details: r(CAG) RNA 1x1 AA loop, TO-PRO-1 displacement fluorescence
The source made the active and inactive calls.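 How the source made its calls: active means IC50 of 10 µM or lower; inactive means IC50 above 10 µM.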
Could you please pick one outcome from this set? active, inactive

What is the recorded call for this compound in the test? CC(=O)NS(=O)(=O)c1ccc(NC(=O)/C=C/c2cn(-c3ccccc3)nc2-c2ccccc2)cc1
active

Same read-out for COc1ccc(-c2nn(-c3ccccc3)cc2/C=C/C(=O)Nc2cccc(NC(C)=O)c2)cc1OC ?
inactive

Same read-out for Cc1c(C(=O)Nc2ccc(S(=O)(=O)Nc3ncccn3)cc2)oc2ccc(F)cc12 ?
inactive

Same read-out for NC(=O)c1cc(NC(=O)/C=C/c2cn(-c3ccccc3)nc2-c2ccc(F)cc2)c(F)cc1F ?
inactive

Same read-out for COc1ccc(-c2nn(-c3ccccc3)cc2/C=C/C(=O)Nc2ccc(C(=O)O)cc2)cc1 ?
active

Same read-out for O=C(/C=C/c1cn(-c2ccccc2)nc1-c1ccccc1)NCc1ccccc1 ?
inactive

Same read-out for O=C(/C=C/c1cn(-c2ccccc2)nc1-c1ccccc1)NCCc1c[nH]c2ccccc12 ?
inactive

Same read-out for CCN1CCN(C(=O)/C=C/c2cn(-c3ccccc3)nc2-c2ccccc2)CC1 ?
inactive

Same read-out for Cc1ccc(-c2nn(-c3ccccc3)cc2/C=C/C(=O)Nc2cccc(S(N)(=O)=O)c2)cc1 ?
inactive

Same read-out for O=C(/C=C/c1cn(-c2ccccc2)nc1-c1ccccc1)N1CCN(CC(=O)N2CCCC2)CC1 ?
inactive

Same read-out for CN1CCC(N(C)C(=O)/C=C/c2cn(-c3ccccc3)nc2-c2ccccc2)CC1 ?
inactive

Same read-out for CNC(=O)Cc1ccc(NC(=O)/C=C/c2cn(-c3ccccc3)nc2-c2ccc(F)cc2)cc1 ?
inactive

Same read-out for CCN(CC)C(=O)/C=C/c1cn(-c2ccccc2)nc1-c1ccccc1 ?
inactive

Same read-out for COc1ccc(NC(=O)/C=C/c2cn(-c3ccccc3)nc2-c2ccc(OC)cc2)cc1 ?
inactive

Same read-out for Cc1ccc(-c2nn(-c3ccccc3)cc2/C=C/C(=O)Nc2ccc(S(N)(=O)=O)cc2)cc1 ?
inactive

Same read-out for Cc1c(C(=O)Nc2ccc(S(=O)(=O)N(C)Cc3ccccc3)cc2)oc2ccc(F)cc12 ?
inactive

Same read-out for O=C(/C=C/c1cn(-c2ccccc2)nc1-c1ccc2ccccc2c1)Nc1ccc(C(=O)O)cc1 ?
active

Same read-out for O=C(/C=C/c1cn(-c2ccccc2)nc1-c1ccccc1)NCCO ?
inactive
